Property: melting point; scope: individual compounds

[
  {
    "ITEM SMILES": "Cc1cccc(C(=O)COc2c(C(=O)c3ccc(Cl)c(C)c3Cl)c(C)nn2C)c1",
    "melting point, °C": 153
  },
  {
    "ITEM SMILES": "COC(=O)CCc1cc2cc(Cl)c(Cl)cc2[nH]1",
    "melting point, °C": 142
  }
]

###

# Lookup of reported melting point keyed by entry

[
  {
    "COMPOUND": "COc1ccc2c(C(=O)c3ccc(OC4CCCCC4n4ccnc4)cc3)c(-c3ccc(OCCN4CCCC4)cc3)sc2c1 (centres undefined)",
    "melting point": "68 to 78 °C"
  },
  {
    "COMPOUND": "CCOC(=O)C1C(=O)Nc2ccccc2SC1c1ccc(Cl)cc1 (centres undefined)",
    "melting point": "206 °C"
  },
  {
    "COMPOUND": "CC(=O)C1(c2ccccc2)CCN(C(=O)C(c2ccccc2)n2cnc3[nH]ncc3c2=S)CC1 (centres undefined)",
    "melting point": "125 to 128 °C"
  },
  {
    "COMPOUND": "CCc1cn2ccccc2c1S(=O)(=O)c1ccc(OCCCBr)cc1",
    "melting point": "136 °C"
  },
  {
    "COMPOUND": "Cc1c(C(=O)OC(C)C)ncc2c1c1c(OCc3ccccc3)cccc1n2CC(=O)N(C)CCc1ccccc1",
    "melting point": "69 to 74 °C"
  },
  {
    "COMPOUND": "CCc1ccc(SC2CCOC2=O)c(C(=O)O)c1 (centres undefined)",
    "melting point": "167 to 170 °C"
  },
  {
    "COMPOUND": "OC(=S)c1c(F)cccc1-c1ccccc1",
    "melting point": "152 to 156 °C"
  },
  {
    "COMPOUND": "N#Cc1c(N2CCc3ccccc3CC2)[nH]c(=S)[nH]c1=O",
    "melting point": "> 200 °C"
  },
  {
    "COMPOUND": "Cc1ccnc(N2CCN(CCc3c(C)n4c5c(cc([N+](=O)[O-])cc35)CCC4)CC2)c1",
    "melting point": "230 °C"
  }
]

###

READOUT LABEL: melting point

[
  {
    "COMPOUND": "N[C@@H](Cc1c[nH]cn1)C(=O)N(N)C(=O)C(CC(=O)N1CCOCC1)Cc1cccc2ccccc12 (some centres undefined)",
    "READOUT LABEL": "melting point",
    "TEST RESULT": "115 to 119 °C"
  },
  {
    "COMPOUND": "O=C(Oc1ccccc1)C1c2ccccc2Oc2ccc(O)cc21 (centres undefined)",
    "READOUT LABEL": "melting point",
    "TEST RESULT": "182 to 184 °C"
  },
  {
    "COMPOUND": "O=CC1=C(Cl)c2cccc(Cl)c2CC1",
    "READOUT LABEL": "melting point",
    "TEST RESULT": "83.5 to 84 °C"
  },
  {
    "COMPOUND": "CN(c1ccc2c(c1)CCC2)c1nc(=O)c2cccnc2s1",
    "READOUT LABEL": "melting point",
    "TEST RESULT": "157 to 160 °C"
  },
  {
    "COMPOUND": "Nc1ccc(Oc2ccc(C3(c4ccc(Oc5ccc(N)c(O)c5)cc4)C4CC5CC(C4)CC3C5)cc2)cc1O",
    "READOUT LABEL": "melting point",
    "TEST RESULT": "> 160 °C"
  },
  {
    "COMPOUND": "O[C@H](COc1cccc2[nH]ccc12)CN1CCC(c2c[nH]c3c(Cl)cccc23)CC1",
    "READOUT LABEL": "melting point",
    "TEST RESULT": "186 to 189 °C"
  },
  {
    "COMPOUND": "CN(C(=O)c1cc2ccccc2[nH]1)C1N=C(c2ccccc2)c2ccccc2NC1=O (racemic)",
    "READOUT LABEL": "melting point",
    "TEST RESULT": "287 to 288 °C"
  },
  {
    "COMPOUND": "COc1ccc(Nc2nc(NN3CCCCCC3)nc(N(C)C3CCNCC3)n2)cc1Cl",
    "READOUT LABEL": "melting point",
    "TEST RESULT": "81 °C"
  },
  {
    "COMPOUND": "C=CCn1c(NCCCOc2ccccc2)nc(N2CCc3ccccc3CC2)c(C#N)c1=O",
    "READOUT LABEL": "melting point",
    "TEST RESULT": "157 to 159 °C"
  }
]

###

[
  {
    "MOLECULE": "COc1c2c(c(OC)c(OC)c1OC)CC(CCCCCCCCNC(C)=O)C2",
    "melting point": "57 to 61 °C"
  },
  {
    "MOLECULE": "COc1ccc(C(=O)Nc2c(C)c(C)c3c(c2C)C(c2ccc(C(C)C)cc2)C(C)(C)O3)cc1OC (stereo not given)",
    "melting point": "171 to 173 °C"
  },
  {
    "MOLECULE": "CCOC(=O)C1=C(NC(=O)Nc2ccc([N+](=O)[O-])c(C(=O)OCC)c2)CCC1",
    "melting point": "152 to 155 °C"
  },
  {
    "MOLECULE": "Cc1cc(Cc2cnc(NCCCCc3ncc(Br)cc3C)[nH]c2=O)cnc1C",
    "melting point": "126 to 128 °C"
  },
  {
    "MOLECULE": "O=C(O)CCc1cccc(-c2nc(=O)c3ccccc3s2)c1",
    "melting point": "180 °C"
  },
  {
    "MOLECULE": "CN(C=O)c1cc([N+](=O)[O-])cc([N+](=O)[O-])c1",
    "melting point": "93 to 94 °C"
  },
  {
    "MOLECULE": "CC(C)(C)OC(=O)c1nc(-c2ccccc2)[nH]c1-c1cccnc1",
    "melting point": "196 to 197 °C"
  },
  {
    "MOLECULE": "O=C1COCC(c2ccc(F)c(F)c2)N1C(=O)NCCCN1CCC(O)(c2ccccc2)CC1 (stereo not given)",
    "melting point": "85 to 88 °C"
  },
  {
    "MOLECULE": "CC(C)CCCC(C)NC(=O)CCC(=O)c1ccccc1 (stereo not given)",
    "melting point": "84 to 87 °C"
  },
  {
    "MOLECULE": "COc1ccc(-c2nc(S(=O)(=O)c3ccc(Cl)cc3)[nH]c2-c2ccc(OC)cc2)cc1",
    "melting point": "187 to 188 °C"
  },
  {
    "MOLECULE": "O=C(NCC1CC1)N1CC(Oc2ccc(C(F)(F)F)cc2)C1",
    "melting point": "132 to 133 °C"
  },
  {
    "MOLECULE": "COc1cn(-c2cccc(C(F)(F)F)c2)nc(-n2ccnc2-c2ccccc2)c1=O",
    "melting point": "167 to 170 °C"
  },
  {
    "MOLECULE": "CSC=CC(C)(C)C(=O)O",
    "melting point": "49 to 51 °C"
  },
  {
    "MOLECULE": "Cn1c(NCCCCCC(=O)O)c(NC=O)c(=O)n(C)c1=O",
    "melting point": "152 to 153 °C"
  },
  {
    "MOLECULE": "O=[N+]([O-])c1ccc(Sc2ccccc2)c(CCl)c1",
    "melting point": "58 to 60 °C"
  },
  {
    "MOLECULE": "CN1CCN(Cc2cccc(-c3ccc(-c4cn([C@H]5CN6CCC5CC6)nn4)s3)c2)CC1",
    "melting point": "155 °C"
  },
  {
    "MOLECULE": "CC[C@H](NC(C)=O)c1nc2c(C(F)(F)F)cccc2c(O)c1C(=O)Nc1nccs1",
    "melting point": "275 °C"
  },
  {
    "MOLECULE": "N#CC12CCN(CC1)CC2Cc1ccccc1 (stereo not given)",
    "melting point": "82.5 to 84 °C"
  },
  {
    "MOLECULE": "O=C(O)Cc1c(C(=O)O)c2cc(Oc3ccc(Cl)cc3)ccc2n1-c1ccc(N2CCCCC2)cc1",
    "melting point": "183 to 187 °C"
  },
  {
    "MOLECULE": "CCN(CC)Cc1ccnc(F)c1CNC(=O)c1cnc2cc(I)ccc2n1",
    "melting point": "147 to 149 °C"
  }
]

###

Reported melting point values are given for each entry in this list.

[
  {
    "COMPOUND": "CN1CC(N(C)[C@@H]2c3cc(C#N)ccc3OC(C)(C)[C@H]2O)=CC1=O (relative stereo)",
    "melting point": "266 to 269 °C"
  },
  {
    "COMPOUND": "O=C1c2ccc(Nc3ccccc3)nc2CC2CCCCC12 (stereo unspecified)",
    "melting point": "214 to 216 °C"
  },
  {
    "COMPOUND": "ON=Cc1cc(F)ccc1Cl",
    "melting point": "133 to 134 °C"
  },
  {
    "COMPOUND": "CN1CCC(=C2c3ccccc3C=Cc3ccc(C#N)cc32)CC1",
    "melting point": "141 to 146 °C"
  },
  {
    "COMPOUND": "Cc1ccc(-n2c(-c3cc(-c4ccccc4)c(N4CCOCC4)s3)nc3ccccc3c2=O)cc1",
    "melting point": "207 to 209 °C"
  },
  {
    "COMPOUND": "O=c1c2cccnc2[nH]c2ccnn12",
    "melting point": "> 300 °C"
  }
]
